# Tested on: Gram-negative and Gram-positive bacterial strains
# method.description: Antibacterial activity against the panel of strains, broth micro-dilution assay
# Format: cell-based
measurement.name: Antibacterial activity against the bacterial strains tested (in words)

sequence.chain	test.result
SLGTPDHYHGGRHSISRGSQSTGPTHPGYNRRNA [LP3A]	inactive
SVETLASQEHLSSLPMDSQETLLRGT [LP4A]	inactive
